- experiment: Cmax in guinea pig interstitial fluid at 20 mg/kg/day, po after 3 hrs
- Type: ADME, organism-based, Cavia porcellus
- Design: dose 20 mg/kg/day, route oral
property: Cmax (ng/mL)

smilesRepr	property	measurementUnit	assayValue
C[C@@H](c1ncncc1F)[C@](O)(Cn1cncn1)c1ccc(F)cc1F	Cmax	ng/mL	2000

* * *

- experiment: Cmin in guinea pig whole blood at 20 mg/kg/day, po after 3 hrs
- Assay type: ADME, organism-based, Cavia porcellus
- Set-up: route oral
- protocolConditions: read-out: Cmin

smilesRepr	concentration at 3 h [ng/mL]
C[C@@H](c1ncncc1F)[C@](O)(Cn1cncn1)c1ccc(F)cc1F	4000

* * *

- experiment: Cmax in guinea pig skin at 20 mg/kg/day, po after 3 hrs
- Assay type: ADME, organism-based, Cavia porcellus, Zone of skin
- Design: dose 20 mg/kg/day, route oral

smilesRepr	Cmax
C[C@@H](c1ncncc1F)[C@](O)(Cn1cncn1)c1ccc(F)cc1F	28100 ng/g

* * *

- experiment: Cmax in guinea pig whole blood at 20 mg/kg/day, po after 3 hrs
- Assay type: ADME, organism-based, Cavia porcellus
- Set-up: dose 20 mg/kg/day, route oral
property: Cmax

smilesRepr	property	assayValue
C[C@@H](c1ncncc1F)[C@](O)(Cn1cncn1)c1ccc(F)cc1F	Cmax	7700 ng/mL

* * *

- experiment: Cmax in guinea pig skin biopsy specimen at 20 mg/kg/day, po after 3 hrs
- Type: ADME, organism-based, Cavia porcellus, Zone of skin
- Parameters: dose 20 mg/kg/day, route oral
property: Cmax

compound	property	assayValue
C[C@@H](c1ncncc1F)[C@](O)(Cn1cncn1)c1ccc(F)cc1F [VORICONAZOLE]	Cmax	35900 ng/g
